Parameter MIC: see the listing below.
- Tested on: Staphylococcus aureus
- protocol-summary: Antibacterial activity against methicillin-resistant Staphylococcus aureus 10-11 after 18 to 24 hrs by NCCLS method
- Format: functional
value-type: MIC (µg/mL)

COc1cc(Br)c(CN2CCN(c3cc4c(cc3F)c(=O)c(C(=O)O)cn4C3CC3)CC2)cc1OC = 32
O=C(O)c1cn(C2CC2)c2cc(N3CCN(Cc4cc5c(cc4[N+](=O)[O-])OCO5)CC3)c(F)cc2c1=O = 32
O=C(O)c1cn(C2CC2)c2cc(N3CCN(Cc4ccccc4)CC3)c(F)cc2c1=O = 64
O=C(O)c1cn(C2CC2)c2cc(N3CCNCC3)c(F)cc2c1=O [CIPROFLOXACIN] = 32
COc1cc(CN2CCN(c3cc4c(cc3F)c(=O)c(C(=O)O)cn4C3CC3)CC2)cc(OC)c1 = 128
COc1cccc(CN2CCN(c3cc4c(cc3F)c(=O)c(C(=O)O)cn4C3CC3)CC2)c1OC = 16
O=C(O)c1cn(C2CC2)c2cc(N3CCN(Cc4ccc5c(c4)OCO5)CC3)c(F)cc2c1=O = 32
COc1ccc(CN2CCN(c3cc4c(cc3F)c(=O)c(C(=O)O)cn4C3CC3)CC2)c(Cl)c1OC = 64

###

- Tested on: Pseudomonas aeruginosa
- protocol-summary: Antibacterial activity against Pseudomonas aeruginosa 10-9 after 18 to 24 hrs by NCCLS method
- Format: functional
value-type: MIC (µg/mL)

O=C(O)c1cn(C2CC2)c2cc(N3CCN(Cc4ccc5c(c4)OCO5)CC3)c(F)cc2c1=O = 16
COc1ccc(CN2CCN(c3cc4c(cc3F)c(=O)c(C(=O)O)cn4C3CC3)CC2)cc1OC = 64
O=C(O)c1cn(C2CC2)c2cc(N3CCN(Cc4ccc(OCc5ccccc5)cc4)CC3)c(F)cc2c1=O = 32
COc1cc(Br)c(CN2CCN(c3cc4c(cc3F)c(=O)c(C(=O)O)cn4C3CC3)CC2)cc1OC = 8
COc1cc(CN2CCN(c3cc4c(cc3F)c(=O)c(C(=O)O)cn4C3CC3)CC2)cc(OC)c1 = 128
COc1cccc(CN2CCN(c3cc4c(cc3F)c(=O)c(C(=O)O)cn4C3CC3)CC2)c1OC = 64
COc1cc(CN2CCN(c3cc4c(cc3F)c(=O)c(C(=O)O)cn4C3CC3)CC2)cc(OC)c1OC = 32
O=C(O)c1cn(C2CC2)c2cc(N3CCN(Cc4ccc5c(c4)OCCO5)CC3)c(F)cc2c1=O = 64
COc1ccc(CN2CCN(c3cc4c(cc3F)c(=O)c(C(=O)O)cn4C3CC3)CC2)c(Cl)c1OC = 128
COc1cc(CN2CCN(c3cc4c(cc3F)c(=O)c(C(=O)O)cn4C3CC3)CC2)ccc1OCc1ccccc1 = 64
COc1ccc(CN2CCN(c3cc4c(cc3F)c(=O)c(C(=O)O)cn4C3CC3)CC2)c(OC)c1OC = 32
COc1ccc(OC)c(CN2CCN(c3cc4c(cc3F)c(=O)c(C(=O)O)cn4C3CC3)CC2)c1 = 16
O=C(O)c1cn(C2CC2)c2cc(N3CCN(Cc4cc5c(cc4[N+](=O)[O-])OCO5)CC3)c(F)cc2c1=O = 1
COc1ccc(CN2CCN(c3cc4c(cc3F)c(=O)c(C(=O)O)cn4C3CC3)CC2)cc1 = 4
O=C(O)c1cn(C2CC2)c2cc(N3CCN(Cc4ccccc4)CC3)c(F)cc2c1=O = 16
COc1cc(CN2CCN(c3cc4c(cc3F)c(=O)c(C(=O)O)cn4C3CC3)CC2)c([N+](=O)[O-])cc1OC = 8

###

- System: Staphylococcus aureus
- protocol-summary: Antibacterial activity against methicillin-resistant Staphylococcus aureus 10-15 after 18 to 24 hrs by NCCLS method
- Type: functional
Parameter MIC: see the listing below.
value-type: MIC (µg/mL)

COc1cc(CN2CCN(c3cc4c(cc3F)c(=O)c(C(=O)O)cn4C3CC3)CC2)c([N+](=O)[O-])cc1OC = 16
O=C(O)c1cn(C2CC2)c2cc(N3CCN(Cc4ccc(OCc5ccccc5)cc4)CC3)c(F)cc2c1=O = 128
COc1cccc(CN2CCN(c3cc4c(cc3F)c(=O)c(C(=O)O)cn4C3CC3)CC2)c1OC = 16
COc1cc(CN2CCN(c3cc4c(cc3F)c(=O)c(C(=O)O)cn4C3CC3)CC2)cc(OC)c1OC = 32
COc1ccc(OC)c(CN2CCN(c3cc4c(cc3F)c(=O)c(C(=O)O)cn4C3CC3)CC2)c1 = 16
COc1cc(Br)c(CN2CCN(c3cc4c(cc3F)c(=O)c(C(=O)O)cn4C3CC3)CC2)cc1OC = 32
COc1ccc(CN2CCN(c3cc4c(cc3F)c(=O)c(C(=O)O)cn4C3CC3)CC2)c(OC)c1OC = 16
COc1ccc(CN2CCN(c3cc4c(cc3F)c(=O)c(C(=O)O)cn4C3CC3)CC2)cc1 = 4
O=C(O)c1cn(C2CC2)c2cc(N3CCN(Cc4ccccc4)CC3)c(F)cc2c1=O = 16
O=C(O)c1cn(C2CC2)c2cc(N3CCN(Cc4ccc5c(c4)OCO5)CC3)c(F)cc2c1=O = 16
COc1ccc(CN2CCN(c3cc4c(cc3F)c(=O)c(C(=O)O)cn4C3CC3)CC2)cc1OC = 16
O=C(O)c1cn(C2CC2)c2cc(N3CCN(Cc4ccc5c(c4)OCCO5)CC3)c(F)cc2c1=O = 4
COc1cc(CN2CCN(c3cc4c(cc3F)c(=O)c(C(=O)O)cn4C3CC3)CC2)cc(OC)c1 = 64
COc1ccc(CN2CCN(c3cc4c(cc3F)c(=O)c(C(=O)O)cn4C3CC3)CC2)c(Cl)c1OC = 64
O=C(O)c1cn(C2CC2)c2cc(N3CCN(Cc4cc5c(cc4[N+](=O)[O-])OCO5)CC3)c(F)cc2c1=O = 32

###

- System: Escherichia coli
- protocol-summary: Antibacterial activity against Escherichia coli 10-3 after 18 to 24 hrs by NCCLS method
- Format: functional
value-type: MIC (µg/mL)

COc1ccc(CN2CCN(c3cc4c(cc3F)c(=O)c(C(=O)O)cn4C3CC3)CC2)cc1 = 8
O=C(O)c1cn(C2CC2)c2cc(N3CCN(Cc4ccc5c(c4)OCCO5)CC3)c(F)cc2c1=O = 16
COc1ccc(CN2CCN(c3cc4c(cc3F)c(=O)c(C(=O)O)cn4C3CC3)CC2)cc1OC = 64
COc1cc(CN2CCN(c3cc4c(cc3F)c(=O)c(C(=O)O)cn4C3CC3)CC2)c([N+](=O)[O-])cc1OC = 8
O=C(O)c1cn(C2CC2)c2cc(N3CCN(Cc4cc5c(cc4[N+](=O)[O-])OCO5)CC3)c(F)cc2c1=O = 8
COc1ccc(OC)c(CN2CCN(c3cc4c(cc3F)c(=O)c(C(=O)O)cn4C3CC3)CC2)c1 = 16

###

- Test system: Klebsiella pneumoniae
- protocol-summary: Antibacterial activity against Klebsiella pneumoniae 10-3 after 18 to 24 hrs by NCCLS method
- Assay type: functional
value-type: MIC (µg/mL)

COc1ccc(CN2CCN(c3cc4c(cc3F)c(=O)c(C(=O)O)cn4C3CC3)CC2)c(Cl)c1OC = 32
COc1cc(Br)c(CN2CCN(c3cc4c(cc3F)c(=O)c(C(=O)O)cn4C3CC3)CC2)cc1OC = 8
COc1cccc(CN2CCN(c3cc4c(cc3F)c(=O)c(C(=O)O)cn4C3CC3)CC2)c1OC = 16
COc1cc(CN2CCN(c3cc4c(cc3F)c(=O)c(C(=O)O)cn4C3CC3)CC2)cc(OC)c1OC = 32
O=C(O)c1cn(C2CC2)c2cc(N3CCN(Cc4ccc(OCc5ccccc5)cc4)CC3)c(F)cc2c1=O = 32
COc1ccc(CN2CCN(c3cc4c(cc3F)c(=O)c(C(=O)O)cn4C3CC3)CC2)cc1 = 4
COc1ccc(OC)c(CN2CCN(c3cc4c(cc3F)c(=O)c(C(=O)O)cn4C3CC3)CC2)c1 = 16
COc1ccc(CN2CCN(c3cc4c(cc3F)c(=O)c(C(=O)O)cn4C3CC3)CC2)cc1OC = 16
COc1cc(CN2CCN(c3cc4c(cc3F)c(=O)c(C(=O)O)cn4C3CC3)CC2)c([N+](=O)[O-])cc1OC = 8
COc1cc(CN2CCN(c3cc4c(cc3F)c(=O)c(C(=O)O)cn4C3CC3)CC2)cc(OC)c1 = 64
O=C(O)c1cn(C2CC2)c2cc(N3CCN(Cc4cc5c(cc4[N+](=O)[O-])OCO5)CC3)c(F)cc2c1=O = 2
O=C(O)c1cn(C2CC2)c2cc(N3CCN(Cc4ccccc4)CC3)c(F)cc2c1=O = 16
O=C(O)c1cn(C2CC2)c2cc(N3CCN(Cc4ccc5c(c4)OCCO5)CC3)c(F)cc2c1=O = 8
O=C(O)c1cn(C2CC2)c2cc(N3CCNCC3)c(F)cc2c1=O = 0.25
COc1ccc(CN2CCN(c3cc4c(cc3F)c(=O)c(C(=O)O)cn4C3CC3)CC2)c(OC)c1OC = 16
O=C(O)c1cn(C2CC2)c2cc(N3CCN(Cc4ccc5c(c4)OCO5)CC3)c(F)cc2c1=O = 8
COc1cc(CN2CCN(c3cc4c(cc3F)c(=O)c(C(=O)O)cn4C3CC3)CC2)ccc1OCc1ccccc1 = 32
